Test system: SK-MEL-28
Experiment Description: NCI tumour cell line growth inhibition, 48 h
Activity calls are given as the source filed them. No stated cut-off is given here; in the data, active = GI50 up to about 1.1 µM and inactive = higher.
Result Type: GI50

# query: GI50 of entry CN(C)c1n/c(=N/c2ccc(/N=c3\nc(N(C)C)ss3)cc2)ss1
16.8 µM (inactive)

# query: GI50 of entry O=C1NC(=O)C(c2c[nH]c3ccccc23)=C1c1cn(C(c2ccccc2)(c2ccccc2)c2ccccc2)cn1
16.2 µM (inactive)

# query: GI50 of entry COc1cc(/C=C2\N=C(c3ccccc3)N(c3nc4c(OC)ccc(OC)c4s3)C2=O)ccc1O
> 100 µM (inactive)

# query: GI50 of entry CO[C@@]1(c2ccccc2)O[C@H]2OCCC2[C@H]1c1ccc(Cl)cc1 (stereo not given in full)
63.8 µM (inactive)

# query: GI50 of entry CC(C)C12CCC3(CCC4C(C)(C(=O)O)CCCC4(C)C3C1)C(CN)C2 (stereo not given)
39.7 µM (inactive)

====

Test system: A498
Experiment Description: NCI tumour cell line growth inhibition, 48 h
Calls of active or inactive are those of the source. Cut-off read from the data, not from the text of the source: active = GI50 up to about 1.1 µM and inactive = higher.
Form entry, call: pick from active, inactive

How did this test come out for CCc1cccc(C(C)C)c1NC(=O)C(=O)CC(=O)c1c(C)[n+]([O-])c2ccccc2[n+]1[O-] ?
inactive

How did this test come out for Cc1ccc(Cl)c2[nH]c(-c3ccccc3)cc(=O)c12 ?
inactive

How did this test come out for Cc1ccc(C(=O)OC[C@H]2CC[C@@H](n3cc(N(C)C4CCCCC4)c(=O)[nH]c3=O)O2)cc1 ?
inactive

How did this test come out for CC(=O)OCc1cc2ccccc2nc1C(Br)(Br)Br ?
inactive

How did this test come out for Cc1c2ncccc2c(C)c2c1[nH]c1ccc(O)cc12 ?
inactive

How did this test come out for COc1cc(/C=C2\N=C(c3ccccc3)N(c3nc4c(OC)ccc(OC)c4s3)C2=O)ccc1O ?
inactive

How did this test come out for COc1cccc2nc3c(C(=O)NCCN(C)C)cccc3cc12 ?
active

How did this test come out for CCOC(=O)/C=C(/CN1C(=O)c2ccccc2C1=O)c1ccccc1 ?
inactive

How did this test come out for O=C(NC(COC(=O)C(Cc1ccccc1)NC(=O)c1ccccc1)Cc1ccccc1)c1ccccc1 (stereo not drawn) ?
inactive

How did this test come out for CCn1c2ccc(C(=O)CCCN3CCCCC3)cc2c2cc(C(=O)CCCN3CCCCC3)ccc21 ?
inactive

How did this test come out for COC(=O)CCC(=O)c1ccc2c(c1)CC1(Cc3ccccc3C1)C2 ?
inactive

How did this test come out for CCOC(=O)CSc1nc(-c2ccccc2)c(C#N)c(=O)[nH]1 ?
inactive

How did this test come out for CN(C)Cc1cc(C(=O)/C=C/c2ccc([N+](=O)[O-])cc2)cc(CN(C)C)c1O ?
inactive

How did this test come out for CCOC(=O)c1c(-c2ccccc2)oc(=O)c(Cc2cccc3cccnc23)c1-c1ccccc1 ?
inactive

How did this test come out for C[C@@H]1C[C@H]2[C@@H]3CCC4=CC(=O)C=C[C@]4(C)[C@@]3(Cl)[C@@H](Cl)C[C@]2(C)[C@@]1(O)C(=O)COP(=O)(O)O ?
inactive

How did this test come out for C=CCc1ccc(O)c(-c2cc(C3Oc4c(-c5cc(CC=C)ccc5O)cc(O)cc4[C@@H]3CO)ccc2O)c1 (stereo partly drawn) ?
inactive

How did this test come out for CN1C(=O)CN=C(c2ccccc2F)c2cc(N=C=S)ccc21 ?
inactive

How did this test come out for COCO[C@@H]1C[C@H]2C(=O)N(COC)c3ccccc3C(=O)N2C1 ?
inactive

How did this test come out for CCC12C=CCN3CCC4(c5cc(C(c6ccc(OC)cc6)C6Cc7ccccc7N6)c(OC)cc5N(C)C4C(O)(C(=O)OC)C1O)C32 (stereo not drawn) ?
inactive

How did this test come out for CCCCCCCCCCCCCC(=O)CBr ?
inactive

How did this test come out for O=c1c2c3c(sc2nc(CN2CCNCC2)n1-c1ccccc1)CCCC3 ?
inactive

How did this test come out for C=C1CC(COc2ccc3c(C)cc(=O)oc3c2)(c2ccccc2)OC1=O (stereo not drawn) ?
inactive

How did this test come out for CC1(C)OP(=O)(O)CC1=O ?
inactive

How did this test come out for CCCNC(=O)C(C)(Cl)C(=O)c1ccccc1O (stereo not drawn) ?
inactive

How did this test come out for CSc1ncnc2c1cnn2Cc1cn(COCCO)nn1 ?
inactive

How did this test come out for CC(C)O/C=C1\C(=O)C2(SCCS2)[C@H]2CCCC[C@@H]12 ?
inactive

How did this test come out for S=C1c2cc(Cl)ccc2N=C(NC2CCCC2)C2CSCN12 (stereo not drawn) ?
inactive

How did this test come out for Cc1c2ccncc2cc2c1[nH]c1ccccc12 ?
active
